Biological target: S-adenosylmethionine synthase isoform type-2 (Rattus norvegicus) (UniProt P18298)
Sequence (P18298 whole entry, looked up, stated change not applied, canonical isoform): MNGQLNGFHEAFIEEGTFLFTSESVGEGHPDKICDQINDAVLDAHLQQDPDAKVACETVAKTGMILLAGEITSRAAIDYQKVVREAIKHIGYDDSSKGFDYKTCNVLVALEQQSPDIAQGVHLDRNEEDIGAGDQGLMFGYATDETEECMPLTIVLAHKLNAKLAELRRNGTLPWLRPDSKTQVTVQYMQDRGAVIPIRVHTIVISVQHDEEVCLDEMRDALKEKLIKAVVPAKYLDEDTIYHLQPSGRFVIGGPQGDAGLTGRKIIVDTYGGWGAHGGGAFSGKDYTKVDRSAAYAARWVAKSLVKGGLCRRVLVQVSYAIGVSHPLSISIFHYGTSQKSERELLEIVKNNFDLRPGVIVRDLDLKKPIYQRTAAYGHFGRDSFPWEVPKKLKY
Test: Inhibition constants against ATP substrate site of M-2 (kidney form) variant of rat Methionine adenosyltransferase
measured endpoint: Ki (nM)
Respond numerically; units are nM and should not be typed.

Examples from the recorded data:
molecule | unit tag | measured result
CCCCSc1ncnc2c1ncn2[C@@H]1O[C@H]([C@H](CSCC[C@H](N)C(=O)O)OP(=O)(O)OP(=O)(O)NP(=O)(O)O)[C@@H](O)[C@H]1O | nM | 120
Nc1ncnc2c1ncn2[C@@H]1O[C@H]([C@H](CSCCC(N)C(=O)O)OP(=O)(O)OP(=O)(O)NP(=O)(O)O)[C@@H](O)[C@H]1O (stereo partly drawn) | nM | 130

Then this molecule:
Data request, read-out Ki, for CCCCSc1ncnc2c1ncn2[C@@H]1O[C@H](COP(=O)(O)OP(=O)(O)OP(=O)(O)O)[C@@H](O)[C@H]1O
310000

---

Target: S-adenosylmethionine synthase isoform type-2 (Rattus norvegicus)
Experiment: Inhibition constants with Met (L-methionine) substrate site of M-2 (kidney form) variant of rat Methionine adenosyltransferase
measured endpoint: Ki (µM)
Value expressed in µM; do not type the unit.

molecule | unit tag | Ki
Nc1ncnc2c1ncn2[C@@H]1O[C@H]([C@H](CSCCC(N)C(=O)O)OP(=O)(O)OP(=O)(O)NP(=O)(O)O)[C@@H](O)[C@H]1O (some centres not stated) | µM | 0.65

Could you now look at the following molecule, please?
Given the molecule CCCCSc1ncnc2c1ncn2[C@@H]1O[C@H]([C@H](CSCC[C@H](N)C(=O)O)OP(=O)(O)OP(=O)(O)NP(=O)(O)O)[C@@H](O)[C@H]1O , what is its reported Ki?
2.9

---

Target: S-adenosylmethionine synthase isoform type-2 (Rattus norvegicus) (UniProt P18298)
Assay: Inhibition constants against ATP substrate site of M-T (Novikoff Ascitic Hepatoma form) variant of rat Methionine adenosyltransferase
# key: entry, value: pKi
Notebook: values listed as pKi are -log10 of the concentration (mol/L).

The examples below pair each entry with its known result.
compound | measured result
CCCCSc1ncnc2c1ncn2[C@@H]1O[C@H]([C@H](CSCC[C@H](N)C(=O)O)OP(=O)(O)OP(=O)(O)NP(=O)(O)O)[C@@H](O)[C@H]1O | 6.96
CCCCSc1ncnc2c1ncn2[C@@H]1O[C@H](COP(=O)(O)OP(=O)(O)OP(=O)(O)O)[C@@H](O)[C@H]1O | 4.00

Next item in the queue.
# get_value(readout='pKi', item= Nc1ncnc2c1ncn2[C@@H]1O[C@H]([C@H](CSCCC(N)C(=O)O)OP(=O)(O)OP(=O)(O)NP(=O)(O)O)[C@@H](O)[C@H]1O (stereo partly drawn) )
6.68

// provenance: ChEMBL document CHEMBL1125171
